Hey, just so you know, these numbers are from PubChem BioAssay (NCI).

# Test system: OVCAR-5 ovarian
# Method summary: NCI tumour cell line growth inhibition, 48 h
TGI reference

Consider the worked cases shown below.
COc1ccc(N2C(C)=C(C#N)C34C(=O)N(c5ccccc5)C(=O)C3=C(O)C=CC24O)cc1 (stereo not drawn) :: 73.8 µM
CC(=O)NS(=O)(=O)c1ccc(NC(=O)c2c3ccccc3nc3ccccc23)cc1 :: > 100 µM

Prompt line: Given the compound CCN(CC)CCn1ccc(=O)c2cc3c(=O)ccn(CCN(CC)CC)c3c(C)c21 , what is its reported TGI?
Response line: 29.9 µM

Prompt line: Now consider CC(C)NC[C@@H](C(=O)N1CCN(c2ncnc3c2[C@H](C)C[C@H]3O)CC1)c1ccc(Cl)cc1 and answer again.
Response line: > 100 µM

Prompt line: // same read-out, input: COc1ccc(CC(CO)NC(=O)OCc2ccccc2)cc1Oc1ccc(CC(CO)NC(=O)OCc2ccccc2)cc1 (stereo not drawn)
Response line: 30.9 µM

Prompt line: And then CN1CCN(CCc2cccc(C(=O)c3cnn(-c4ccc(F)cc4)c3N)c2)CC1 , what is it?
Response line: > 25 µM

Prompt line: Repeat for the following compound: COc1ccc(/C(=N/O)c2ccccc2-c2nc3ccccc3c(=O)n2-c2ccc(S(=O)(=O)Nc3ncccn3)cc2)cc1C
Response line: > 31.6 µM
